Biological target: T1, human calcitonin receptor (human, UniProt P30988 25-474)
T1 construct: whole, on cells; also called hCTR; hCT
T1 sequence (looked up): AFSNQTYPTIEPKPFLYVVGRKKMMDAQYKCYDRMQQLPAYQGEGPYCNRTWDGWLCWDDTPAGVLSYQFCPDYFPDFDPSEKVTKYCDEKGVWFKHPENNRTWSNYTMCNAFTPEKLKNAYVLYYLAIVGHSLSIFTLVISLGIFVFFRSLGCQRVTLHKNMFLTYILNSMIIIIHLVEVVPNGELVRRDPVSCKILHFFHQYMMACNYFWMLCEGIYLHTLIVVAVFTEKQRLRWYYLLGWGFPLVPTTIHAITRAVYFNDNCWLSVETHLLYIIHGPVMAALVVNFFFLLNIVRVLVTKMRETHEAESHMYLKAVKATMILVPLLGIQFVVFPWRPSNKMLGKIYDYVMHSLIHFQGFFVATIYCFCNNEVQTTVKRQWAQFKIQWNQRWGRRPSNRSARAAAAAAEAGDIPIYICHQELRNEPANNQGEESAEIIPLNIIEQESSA
Experiment: ratio of IC50 at hCTR to IC50 at the human amylin receptor (reference)
Numbered stars: 1 amine (or outer) side, 2 acyl side, 3 side chain; on linkers, the order of the positions; unused ones are H or OH. Bridge positions count the residues as written; N and C are the ends. Side chains are listed from the residue outwards. Ends that are not written are not given here. * marks the point of attachment. C20 diacid = O=C(O)CCCCCCCCCCCCCCCCCCC(=O)*; γGlu = O=C(O)[C@H](CCC(=O)[*:2])N[*:1]
measurement.kind: Ratio hCT/hAmylin binding

1) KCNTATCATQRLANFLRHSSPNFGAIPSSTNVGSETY (C20 diacid-gGlu on the alpha amino group of the N-terminal residue; disulfide bridge Cys2-Cys7; C-terminal amide, also called compound 23) [N^α1-[(4S)-4-carboxy-4-(19-carboxynonadecanoylamino)butanoyl]-[Arg17,Pro21,Pro27,Glu35]-h-amylin] = 25
2) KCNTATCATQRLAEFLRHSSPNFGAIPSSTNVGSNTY (C20 diacid-gGlu on the alpha amino group of the N-terminal residue; disulfide bridge Cys2-Cys7; C-terminal amide, also called compound 9) [N^α1-[(4S)-4-carboxy-4-(19-carboxynonadecanoylamino)butanoyl]-[Glu14,Arg17,Pro21,Pro27]-h-amylin] = 8
3) {C20 diacid-γGlu}-KCNTATCATQRLAEFLRHSSPNFGAILPSTNVGSETY-NH2 (disulfide 2-7, also called compound 33) = 3.9
4) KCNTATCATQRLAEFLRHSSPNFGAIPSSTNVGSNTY (C20 diacid-gGlu-2xOEG on the alpha amino group of the N-terminal residue; disulfide bridge Cys2-Cys7; C-terminal amide, also called compound 19) = 36.7
5) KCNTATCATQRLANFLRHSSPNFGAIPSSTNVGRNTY (C20 diacid-gGlu on the alpha amino group of the N-terminal residue; disulfide bridge Cys2-Cys7; C-terminal amide, also called compound 39) [N^α1-[(4S)-4-carboxy-4-(19-carboxynonadecanoylamino)butanoyl]-[Arg17,Pro21,Pro27,Arg34]-h-amylin] = 29
6) K([γGlu-γGlu-C20 diacid])CNTATCATQRLAEFLRHSSPNFGAIPSSTNVGSNTP-NH2 (disulfide 2-7 (inferred), also called compound 13) = 1.2

FYI, the data here is from patent US20140087995A1.
